Attribution: paper PMC7712530

A collection of compounds and their measured EC50
test system: HBV; assay: Anti-HBV assay in HepG2 2.2.15 cells; format: cell-based; conditions: Hepatitis B virus, HepG2 2.2.15, 144 h, read-out: EC50 anti-HBV activity
measured-endpoint: EC50 (nM)

INSERT INTO results (compound, reading_unit, bound_operator, measured_number) VALUES
  ('C=C(CCO)Cn1cnc2c(=O)[nH]c(N)nc21 [Compound 6]', 'nM', '>', 1000),
  ('C=C1[C@H](CO)[C@@H](O)C[C@@H]1n1cnc2c(=O)[nH]c(N)nc21 [Entecavir, entecavir, reference compound]', 'nM', '=', 0.77);
